Molecular target: Cyclin-dependent kinase 5 (Homo sapiens, UniProt Q00535); also: in the data inactive means no Kd found up to 30 µM
Sequence (Q00535 whole entry): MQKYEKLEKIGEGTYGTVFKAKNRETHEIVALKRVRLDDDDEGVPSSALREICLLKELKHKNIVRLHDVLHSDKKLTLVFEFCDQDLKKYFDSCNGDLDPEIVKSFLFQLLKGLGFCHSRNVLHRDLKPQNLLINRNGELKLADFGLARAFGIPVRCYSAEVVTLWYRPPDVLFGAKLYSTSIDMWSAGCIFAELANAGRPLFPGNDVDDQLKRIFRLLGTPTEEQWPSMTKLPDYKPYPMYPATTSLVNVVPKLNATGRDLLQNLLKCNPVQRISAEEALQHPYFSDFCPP
Activity calls are given as the source filed them.
I would appreciate it if you answered using one of these outcomes: 1 (active), -1 (inactive)

Hello, I am checking results. What call was entered for CC[C@@H]1C(=O)N(C)c2cnc(Nc3ccc(C(=O)N[C@H]4CC[C@H](N5CCN(CC6CC6)CC5)CC4)cc3OC)nc2N1C(C)C [VOLASERTIB] ?
-1

Hello, I am checking results. What call was entered for Cc1c(F)cc(C(=O)NC2CC2)cc1-c1ccc(C(=O)NCC(C)(C)C)cn1 [LOSMAPIMOD] ?
-1

Hello, I am checking results. What call was entered for O=C(Nc1ccc(-c2ccnc(Nc3ccc(N4CCOCC4)cc3)n2)cc1)C1CCCN1 (stereo not drawn) [XL-019] ?
-1

Hello, I am checking results. What call was entered for Cn1cc(-c2ccc3nnc(C(F)(F)c4ccc5ncccc5c4)n3n2)cn1 [JNJ-38877605] ?
-1

Hello, I am checking results. What call was entered for COC(=O)[C@@]1(O)C[C@H]2O[C@]1(C)n1c3ccccc3c3c4c(c5c6ccccc6n2c5c31)C(=O)NC4 [K-252A] ?
1

Hello, I am checking results. What call was entered for COc1ccc(-c2ccc3c(N4CCOC[C@@H]4C)nc(N4CCOC[C@@H]4C)nc3n2)cc1CO [AZD-8055] ?
-1

Hello, I am checking results. What call was entered for COc1cc(N2CCC(N3CCN(C)CC3)CC2)ccc1Nc1ncnc(Nc2ccccc2S(=O)(=O)C(C)C)n1 [ASP-3026] ?
-1

Hello, I am checking results. What call was entered for O=C1NC(=O)/C(=C/c2ccc3nccc(-c4ccncc4)c3c2)S1 [GSK-1059615] ?
-1
